# testMethodNotes: High-throughput equilibrium solubility at pH 6.8
# Format: physicochemical
# recordedConditions: pH 6.8, aqueous buffer, thermodynamic from solid; read-out: HT-Eq Sol/pH 6.8
Measured solubility thermodynamic by item
The response must be a number in µg/mL with no trailing unit.

Reference set (3 entries):
CCNc1cc(-c2ccc3ncc4c(c3c2)n(-c2ccc(OC)nc2Cl)c(=O)n4C)cnc1C : 10
COCc1ncc(-c2ccc3ncc4c(c3c2)n(-c2ccc(N3CCC3)nc2C)c(=O)n4C)cc1OC : 21
CNc1ccc(-c2ccc3ncc4c(c3c2)n(-c2ccc(OCCOC)nc2C)c(=O)n4C)cn1 : 10

Please report the recorded solubility thermodynamic for CCNc1ncc(-c2ccc3ncc4c(c3c2)n(-c2ccc(N3CC[C@@H](O)C3)nc2C)c(=O)n4C)cc1COCC .
172

Quick one: CCNc1cc(-c2ccc3ncc4c(c3c2)n(-c2ccc(C)nc2C)c(=O)n4C)cnc1C
175

Try this molecule next: COc1ncccc1-n1c(=O)n(C)c2cnc3ccc(-c4ccc(C(N)=O)cc4)cc3c21
2

Follow-up entry: CNc1ncc(-c2ccc3ncc4c(c3c2)n(-c2ccc(OC)nc2Cl)c(=O)n4C)cn1
3

// repeat for Cc1ccc(-n2c(=O)n(C)c3cnc4ccc(-c5cnc(N(C)C)nc5)cc4c32)c(C)n1 and report
7

One more molecule: CNc1ncc(-c2ccc3ncc4c(c3c2)n(-c2ccc(OCCOC)nc2C)c(=O)n4C)cn1
15

Can you handle COc1nc(N2CCNCC2)ccc1-n1c(=O)n(C)c2cnc3ccc(-c4cnc(N)c(C(F)(F)F)c4)cc3c21 next?
13
